# Assay Notes: ATG_TCF_b_cat_CIS: Attagene CIS-FACTORIAL HepG2 Assay for human T-Cell-Factor with beta-catenin (TCF/b-cat) (AID 2282965)
# Condition: HepG2 TCF/beta-catenin cis-reporter transcription, actives raise or lower the signal
# Protocol: ATG_CIS is a cell-based, multiplexed-readout assay that uses HepG2, a human liver cell line, with measurements taken at 24 hours after chemical dosing in a 24-well plate.ATG_TCF_b_cat_CIS is one of 52 assay component(s) measured or calculated from the ATG_CIS assay. […] This assay endpoint, ATG_TCF_b_cat_CIS, was analyzed with bidirectional fitting relative to DMSO as the negative control and baseline of activity. […]
The source made the active and inactive calls. How the source made its calls: active means hit-call score of the fitted dose curve at least 0.9, where 1 is the maximum; inactive means score below 0.9.
Answer with one of the outcomes t (active), f (inactive)

Each molecule tested received a call. Report the one for CCCCCCCCCCCCCCC(Br)C(=O)O (stereo unspecified) . f

Each molecule tested received a call. Report the one for `CNC(=O)N(C)c1nc2ccccc2s1` . f

Each molecule tested received a call. Report the one for `Fc1cccc(Cl)c1CCl` . t

Continue with the next molecule.
Each molecule tested received a call. Report the one for `CN(C1CCCCC1)C1CCCCC1` . f

###

# Assay Notes: ATG_FoxO_CIS: Attagene CIS-FACTORIAL HepG2 Assay for human Forkhead box O (FoxO) (AID 2282943)
# Condition: HepG2 Attagene cis-reporter, FoxO element, mRNA; actives raise or lower the signal
Calls of active or inactive are those of the source. The calls were made as follows: active = hit-call score of the fitted dose curve at least 0.9, where 1 is the maximum; inactive = score below 0.9.
Answer with one of the outcomes 1 (active), -1 (inactive)

Each compound tested received a call. Report the one for `Clc1cccc(Cl)c1` . -1

Each compound tested received a call. Report the one for `CC1(C)COP(Oc2ccccc2)OC1` . -1

Each compound tested received a call. Report the one for `C[As+](C)(C)CC(=O)[O-]` . -1

Each compound tested received a call. Report the one for `ClCc1ccccc1CCl` . -1

Each compound tested received a call. Report the one for `Nc1ccc(Br)cc1` . -1

Each compound tested received a call. Report the one for `ClCCN1CCOCC1` . -1

Each compound tested received a call. Report the one for `CCOC(=O)Cc1ccccc1` . -1

Each compound tested received a call. Report the one for `O=C(Cc1ccccc1)OCCc1ccccc1` . -1

Each compound tested received a call. Report the one for `CCCCCCCCCCCCBr` . -1

Each compound tested received a call. Report the one for `CCOP(=S)(OCC)SCS(=O)(=O)C(C)(C)C` . -1

New cases:
Each compound tested received a call. Report the one for `O=C(O)COc1cc(Cl)c(Cl)cc1Cl` . -1

Each compound tested received a call. Report the one for `CCOP(=O)(OCC)OC(=CCl)c1ccc(Cl)cc1Cl` . -1

Each compound tested received a call. Report the one for `CC(C)(C#N)N=NC(C)(C)C#N` . -1

Each compound tested received a call. Report the one for `C=CC(=O)OCC(COC(=O)C=C)(COC(=O)C=C)COC(=O)C=C` . 1

Each compound tested received a call. Report the one for `Cc1cc(SCc2sc(-c3ccc(C(F)(F)F)c(F)c3)nc2C)ccc1OCC(=O)O` . -1

Each compound tested received a call. Report the one for CC1CC(=O)O1 (stereo not drawn) . -1

###

# Read-out: TIMP metallopeptidase inhibitor 2 (TIMP2), TIMP2 (gene 7077)
# Assay Notes: BSK_KF3CT_TIMP2: BioMAP Diversity Plus: KF3CT Assay for TIMP metallopeptidase inhibitor 2 (TIMP2) Biomarker Activity (AID 2283071)
# Condition: primary human keratinocytes with fibroblasts; actives raise or lower the signal
Active and inactive are the calls of the source. Rule for the calls: active = hit-call score of the fitted dose curve at least 0.9, where 1 is the maximum; inactive = score below 0.9.
Measure: AC50

Completed entries (count: 4):
Endpoint output: AC50 of `Cc1c([N+](=O)[O-])c(C)c([N+](=O)[O-])c(C(C)(C)C)c1[N+](=O)[O-]` . Value? inactive

Endpoint output: AC50 of `O=[N+]([O-])c1cccc2ccccc12` . Value? inactive

Endpoint output: AC50 of `Oc1c(Br)cc(Br)cc1Br` . Value? inactive

Endpoint output: AC50 of `N#Cc1cccnc1` . Value? inactive

New cases:
Endpoint output: AC50 of `CC(C)(C)c1cc([N+](=O)[O-])cc(C(C)(C)C)c1O` . Value? 20 µM (active)

Endpoint output: AC50 of `CCCCN(CCCC)C(=S)[S-].CCCCN(CCCC)C(=S)[S-].[Ni+2]` . Value? inactive

Entry source: PubChem BioAssay (EPA / NIEHS)
